Test system: Staphylococcus aureus
measurement notes: Minimum inhibition concentration against Staphylococcus aureus FDA209P strain
Assay type: functional
Listing: log10 of MIC of selected compounds
A value of 2 here means MIC of 100 in µg/mL, since values are log10.

Please review the entries below; each comes with its answer.
compound | log10 of MIC
O=C(O)c1cn(C2CC2)c2c(F)c(N3CCOCC3)c(F)cc2c1=O | -1.60
CC1COc2c(N3CCOC(CN)C3)c(F)cc3c(=O)c(C(=O)O)cn1c23 (stereo not given) | -0.11
O=C(O)c1cn(C2CC2)c2cc(N3CCOCC3)c(F)cc2c1=O | -1.30
CN(C)CC1CN(c2c(F)cc3c(=O)c(C(=O)O)cn(C4CC4)c3c2F)CCO1 (stereo not given) | -1.60
O=C(O)c1cn(C2CC2)c2c(F)c(N3CCOC(CN4CCCCC4)C3)c(F)cc2c1=O (stereo not given) | -0.11
NCC1CN(c2c(F)cc3c(=O)c(C(=O)O)cn(-c4cc(F)cc(F)c4)c3c2F)CCO1 (stereo not given) | -0.70
CCn1cc(C(=O)O)c(=O)c2cc(F)c(N3CCNCC3)cc21 | -0.41
CCN(CC)CC1CN(c2c(F)cc3c(=O)c(C(=O)O)cn(C4CC4)c3c2F)CCO1 (stereo not given) | -1.00
O=C(O)c1cn(C2CC2)c2cc(N3CCNCC3)c(F)cc2c1=O | -1.00

// switching to the query compound
The compound listed as "CCn1cc(C(=O)O)c(=O)c2cc(F)c(N3CCOCC3)cc21" shows log10 of MIC equal to -0.70

* * *

Test system: Enterococcus faecalis
measurement notes: Minimum inhibition concentration against Enterococcus faecalis LS-101 strain
Format: functional
Listing: MIC of selected molecules
The reply should contain only the number, in µg/mL.

molecule | target system | MIC [µg/mL]
O=C(O)c1cn(C2CC2)c2c(F)c(N3CCOCC3)c(F)cc2c1=O | Enterococcus faecalis | 0.78
NCC1CN(c2c(F)cc3c(=O)c(C(=O)O)cn(-c4cc(F)cc(F)c4)c3c2F)CCO1 (stereo not drawn) | Enterococcus faecalis | 0.39

// switching to the query molecule
The molecule listed as CC1COc2c(N3CCN(C)CC3)c(F)cc3c(=O)c(C(=O)O)cn1c23 (stereo not drawn) shows MIC equal to 0.78

* * *

target system: GABA-A receptor; anion channel (Homo sapiens) (UniProt P14867+P47870+P18507+P28472+P48169+Q99928+Q9UN88+P34903+O00591+O14764+Q8N1C3+P18505+P78334+P47869+P31644+Q16445)
measurement notes: Percentage of GABA-induced chloride currents with 10 e-5 M 4-biphenylacetic acid
Assay type: functional
run parameters: Bull Frog
Decide using Currents: a value greater than or equal to 90% is T, a smaller one is F.

structure notation | label class
O=C(O)c1cn(C2CC2)c2cc(N3CCNCC3)c(F)cc2c1=O | F

Prompt: Has "O=C(O)c1cn(C2CC2)c2cc(N3CCOCC3)c(F)cc2c1=O" a recorded Currents greater than or equal to 90%?
Response: T

* * *

Tested on: Staphylococcus aureus
measurement notes: Minimum inhibitory concentration against Staphylococcus aureus Smith
Assay type: functional
recorded metric: MIC (µg/mL)
The reply should contain only the number, in µg/mL.

compound | target system | measurement
NCC1CN(c2cc3c(cc2F)c(=O)c(C(=O)O)cn3C2CC2)CCO1 (centres undefined) | Staphylococcus aureus | 0.05
CNCC1CN(c2c(F)cc3c(=O)c(C(=O)O)cn(C4CC4)c3c2F)CCO1 (centres undefined) | Staphylococcus aureus | 0.012
CN(C)CC1CN(c2c(F)cc3c(=O)c(C(=O)O)cn(C4CC4)c3c2F)CCO1 (centres undefined) | Staphylococcus aureus | 0.012
NCC1CN(c2c(F)cc3c(=O)c(C(=O)O)cn(C4CC4)c3c2F)CCO1 (centres undefined) | Staphylococcus aureus | 0.012
CCn1cc(C(=O)O)c(=O)c2cc(F)c(N3CCNCC3)cc21 [NORFLOXACIN] | Staphylococcus aureus | 0.2
CCn1cc(C(=O)O)c(=O)c2cc(F)c(N3CCOC(CN)C3)c(F)c21 (centres undefined) | Staphylococcus aureus | 0.1
CC1COc2c(N3CCN(C)CC3)c(F)cc3c(=O)c(C(=O)O)cn1c23 (centres undefined) [OFLOXACIN] | Staphylococcus aureus | 0.2
O=C(O)c1cn(C2CC2)c2c(F)c(N3CCOCC3)c(F)cc2c1=O | Staphylococcus aureus | 0.05

// switching to the query compound
The compound listed as O=C(O)c1cn(C2CC2)c2cc(N3CCNCC3)c(F)cc2c1=O [CIPROFLOXACIN] shows MIC equal to 0.1
